Molecular target: ZFP SBS#991 (synthetic)
Sequence (chain, as listed by the source): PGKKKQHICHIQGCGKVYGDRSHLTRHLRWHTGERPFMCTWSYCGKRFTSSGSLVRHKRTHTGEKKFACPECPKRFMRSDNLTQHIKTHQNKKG
Test: EMSA
Settings: tags: MBP fusion
measurement_label: pKd
FYI, pKd means -log10 of a concentration in mol per litre.

Could you share which pKd value was measured for AAGGTGGGC (dsDNA) DNA 1: AAGGTGGGC DNA 2: GCCCACCTT ?
10.22
